Origin of the recorded values: the supplement of paper PMC13380429

Some compounds, each annotated with its measured drug-induced phospholipidosis.
test system: A549-ACE2; assay: drug-induced phospholipidosis relative to tamoxifen; higher = more phospholipidosis; conditions: 3.33333 µM; 24 h
// return numeric value only (unit: %, not printed)

Illustrative cases are given below, each with its answer.
{"compound": "Cc1ccc(NC(=O)Nc2cc(C(F)(F)F)ccc2F)cc1Nc1ccc2c(c1)NC(=O)/C2=C\\c1ccc[nH]1", "target": "A549-ACE2", "readout": "drug-induced phospholipidosis", "unit-info": "%", "recorded-value": 116}
{"compound": "CN1CCN(C2CCN(C(=O)Nc3cc(Oc4ccc(NC(=O)C5(C(=O)Nc6ccc(F)cc6)CC5)c(F)c4)ccn3)CC2)CC1", "target": "A549-ACE2", "readout": "drug-induced phospholipidosis", "unit-info": "%", "recorded-value": 20.9}
{"compound": "Nc1ncccc1-c1nc2ccc(-c3ccccc3)nc2n1-c1ccc(C2(N)CCC2)cc1", "target": "A549-ACE2", "readout": "drug-induced phospholipidosis", "unit-info": "%", "recorded-value": 89.4}

Observed drug-induced phospholipidosis on A549-ACE2, entry COc1ccc2c(C)nc(Nc3nc(C)c(C)c(O)n3)nc2c1 , equals -3.35

GET /values?item= O=C(Nc1ccc(-c2ccnc(Nc3ccc(N4CCOCC4)cc3)n2)cc1)C1CCCN1 (stereo not given) &system= A549-ACE2 returns drug-induced phospholipidosis: -5.43

###

test system: U2OS; assay: drug sensitivity score (DSS) for viability; higher = more toxic; extreme values may be limits of the assay; conditions: 72 h
Measured drug sensitivity score of individual entries

The reported value for CCOC(=O)C1=C[C@@H](OC(CC)CC)[C@H](NC(C)=O)[C@@H](N)C1 [oseltamivir-phosphate] in terms of drug sensitivity score is 0

###

cell viability for assorted compounds
test system: U2OS; assay: cell viability relative to DMSO; higher = less toxic; settings: 72 h; 10 nM
Number only, in %; omit the unit.

Reference set, count: 8
{"compound": "CCC(=O)NC[C@@H]1C[C@H]1c1cccc2c1CCO2", "cell viability / %": 103}
{"compound": "O=C(O)Cc1sc(-c2ccccc2)nc1-c1ccc(Cl)cc1", "cell viability / %": 98.7}
{"compound": "Clc1ccccc1C(c1ccccc1)(c1ccccc1)n1ccnc1", "cell viability / %": 104}
{"compound": "C=C1C(=O)O[C@@H]2[C@H]3C(C)=CC[C@@]34O[C@@]4(C)CC[C@@H]12", "cell viability / %": 102}
{"compound": "COc1ccccc1OC(=O)c1ccccc1OC(C)=O", "cell viability / %": 96.8}
{"compound": "CN(C(=O)CN1C(=O)COc2cc(Cl)c(Cl)cc21)[C@@H](CN1CCCC1)c1ccc(-c2cccc(C(N)=O)c2)cc1", "cell viability / %": 97.1}
{"compound": "CCOC(=O)c1ccc(N(C)c2csc(-c3ccccc3)n2)cc1", "cell viability / %": 97.2}
{"compound": "O=C1NC(=S)NC(=O)C1C(=O)Nc1ccccc1", "cell viability / %": 96.3}

Now for another entry.
Looking up CN/C(=N\c1ccc(C2=NNC(=O)CC2C)cc1)NC#N (centres undefined) , I found its cell viability recorded as 103

###

test system: Vero E6; test: cell viability relative to DMSO; higher = less toxic; conditions: 72 h; 1000 nM
Item-by-item account of cell viability
Report the value in % with no unit label.

Worked examples follow.
{"molecule": "CCC(=O)NC1CCc2cccc(OC)c2C1 (stereo unspecified) [8-M-PDOT]", "readout": "cell viability", "recorded-value": 103}
{"molecule": "COCCN(C(=O)c1cc(OC)c(OC)c(OC)c1)c1nc(-c2ccccc2)cs1 [eact]", "readout": "cell viability", "recorded-value": 96.6}
{"molecule": "O=c1[nH]c(=O)n([C@H]2C[C@H](O)[C@@H](CO)O2)cc1C(F)(F)F [trifluridine]", "readout": "cell viability", "recorded-value": 102}
{"molecule": "O=NO [sodium-nitrite]", "readout": "cell viability", "recorded-value": 103}
{"molecule": "Cc1ccccc1OCC(O)CO (stereo unspecified) [mephenesin]", "readout": "cell viability", "recorded-value": 102}

Please examine the following record next.
Record O=c1c(-c2ccccc2)c1-c1ccccc1 [diphencyprone] . Reported cell viability: 99.1

###

Listed next: entries and their corresponding cell viability.
system: Caco-2; test: cell viability relative to DMSO; higher = less toxic; settings: 72 h; 1 nM
Reply numerically in %, unit not repeated.

Worked cases, answers included:
{"compound": "O=C(O)Cc1sc(-c2ccccc2)nc1-c1ccc(Cl)cc1 [fentiazac]", "cell viability (%)": 100}
{"compound": "Cc1ccnc2c1NC(=O)c1cccnc1N2C1CC1 [nevirapine]", "cell viability (%)": 87.3}
{"compound": "CC[C@@H](C(N)=O)N1CCCC1=O [levetiracetam]", "cell viability (%)": 96.2}

// next item, cell viability requested
Entry CC(=O)Nc1cccc(O)c1 [metacetamol] , tested on Caco-2, has a reported cell viability of 104

###

system: Vero E6; test: drug sensitivity score (DSS) for viability; higher = more toxic; extreme values may be limits of the assay; conditions: 72 h
Collected drug sensitivity score values appear next to each entry.
No unit in the answer, only the number.

The cases that follow already have their drug sensitivity score on record.
{"compound": "Clc1ccc2c(c1)CCc1cccnc1C2=C1CCNCC1", "target": "Vero E6", "recorded-value": 0}
{"compound": "COc1cc2ncnc(Nc3ccc(Cl)cc3F)c2cc1OC", "target": "Vero E6", "recorded-value": 7.4}
{"compound": "CC(=O)S[C@@H]1CC2=CC(=O)CC[C@]2(C)[C@H]2CC[C@@]3(C)[C@@H](CC[C@@]34CCC(=O)O4)[C@H]12", "target": "Vero E6", "recorded-value": 0}
{"compound": "C[C@@H]1NC(=O)[C@@H]2CCCN2C(=O)[C@H](CC(N)=O)NC(=O)[C@@H]2CSSC[C@H](N)C(=O)N[C@H]3CSSC[C@H](NC1=O)C(=O)N[C@@H]([C@@H](C)O)C(=O)NCC(=O)N[C@H](C(=O)N[C@@H](Cc1ccc(O)cc1)C(=O)O)CSSC[C@H](NC(=O)[C@H](Cc1ccc(O)cc1)NC(=O)[C@H](CCC(=O)O)NC3=O)C(=O)N2 [linaclotide]", "target": "Vero E6", "recorded-value": 0}
{"compound": "O=S(=O)(N[C@H](CO)C(C(F)(F)F)C(F)(F)F)c1ccc(Cl)s1", "target": "Vero E6", "recorded-value": 0.7}
{"compound": "CCOc1cc(C(C)(C)C)ccc1C1=N[C@@](C)(c2ccc(Cl)cc2)[C@@](C)(c2ccc(Cl)cc2)N1C(=O)N1CCN(CCCS(C)(=O)=O)CC1", "target": "Vero E6", "recorded-value": 7.1}
{"compound": "O=c1c(-c2ccccc2)c1-c1ccccc1", "target": "Vero E6", "recorded-value": 0}
{"compound": "C#C[C@]1(O)CC[C@H]2[C@@H]3CCC4=CC(=O)CC[C@@H]4[C@H]3CC[C@@]21C", "target": "Vero E6", "recorded-value": 0}

I looked up COc1ccc(CN(CCN(C)C)c2ncccn2)cc1 and its drug sensitivity score for Vero E6 was 0

Case CCc1cccc(CC)c1NC(=O)N1Cc2[nH]nc(NC(=O)c3ccc(N4CCN(C)CC4)cc3)c2C1 , Vero E6, drug sensitivity score recorded as 0

Lab entry: Vero E6 assay, compound COCCN(C(=O)c1cc(OC)c(OC)c(OC)c1)c1nc(-c2ccccc2)cs1 , drug sensitivity score = 0

Entry CCOC(=O)c1ccc(N(C)c2csc(-c3ccccc3)n2)cc1 , Vero E6 data, drug sensitivity score value: 0

Record for O=C1NC(=O)C(=Cc2ccc(-c3ccc(F)cc3)o2)S1 (stereo in doubt) under target or system Vero E6: drug sensitivity score reported as 0.1

The measured drug sensitivity score that Cc1c2oc3c(C)ccc(C(=O)N[C@@H]4C(=O)N[C@@H](C(C)C)C(=O)N5CCC[C@H]5C(=O)N(C)CC(=O)N(C)[C@@H](C(C)C)C(=O)O[C@@H]4C)c3nc-2c(C(=O)N[C@@H]2C(=O)N[C@@H](C(C)C)C(=O)N3CCC[C@H]3C(=O)N(C)CC(=O)N(C)[C@@H](C(C)C)C(=O)O[C@@H]2C)c(N)c1=O showed for Vero E6 is 20.1

###

system: A549-ACE2 infected with SARS-CoV-2; assay: cell count relative to DMSO; higher = less toxic; conditions: 3 µM; 24 h
Item-by-item account of cell count
Quick reminder: number only, in %, skip the unit.

For CN1CCN(C2CCN(C(=O)Nc3cc(Oc4ccc(NC(=O)C5(C(=O)Nc6ccc(F)cc6)CC5)c(F)c4)ccn3)CC2)CC1 the molecule record lists cell count as 110

The molecule Nc1ncccc1-c1nc2ccc(-c3ccccc3)nc2n1-c1ccc(C2(N)CCC2)cc1 showed cell count equal to 98

Briefly, cell count measured for O=C(NCCN1CCC2(CC1)C(=O)NCN2c1cccc(F)c1)c1ccc(F)c(F)c1 : 102

The molecule Cc1ccc(NC(=O)Nc2cc(C(F)(F)F)ccc2F)cc1Nc1ccc2c(c1)NC(=O)/C2=C\c1ccc[nH]1 showed cell count equal to 105

// C=C1C(=O)O[C@@H]2[C@H]3C(C)=CC[C@@]34O[C@@]4(C)CC[C@@H]12 : cell count value = 100
